B1: library; a variant is named by its letters at N, in order (parent)
chain: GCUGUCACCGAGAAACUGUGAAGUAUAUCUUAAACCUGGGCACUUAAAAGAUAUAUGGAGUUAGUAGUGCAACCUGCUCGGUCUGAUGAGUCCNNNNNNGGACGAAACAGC

Variants of: B1
assay: normalized RNA/DNA level without ligand (relative to sTRSVctl = 100) (log10 (% of sTRSVctl)); HEK293T; ligand: cyclic di-GMP (c-di-GMP-II aptamer); higher = less ribozyme self-cleavage, higher mRNA level
condition: reporter: mCherry (pCS4076), ligand present: no
measuredQuantity: normalized RNA/DNA level without ligand (log10)
Just the number.

q: Could you tell me which normalized RNA/DNA level without ligand (log10) is on file for GCUGUCACCGAGAAACUGUGAAGUAUAUCUUAAACCUGGGCACUUAAAAGAUAUAUGGAGUUAGUAGUGCAACCUGCUCGGUCUGAUGAGUCCAUCAGCGGACGAAACAGC [AUCAGC] ?
a: 1.82

q: Same question, GCUGUCACCGAGAAACUGUGAAGUAUAUCUUAAACCUGGGCACUUAAAAGAUAUAUGGAGUUAGUAGUGCAACCUGCUCGGUCUGAUGAGUCCGCUCGCGGACGAAACAGC [GCUCGC] this time
a: 1.82

q: Now the variant GCUGUCACCGAGAAACUGUGAAGUAUAUCUUAAACCUGGGCACUUAAAAGAUAUAUGGAGUUAGUAGUGCAACCUGCUCGGUCUGAUGAGUCCAUCCGCGGACGAAACAGC [AUCCGC]
a: 1.76

q: Let us now turn to GCUGUCACCGAGAAACUGUGAAGUAUAUCUUAAACCUGGGCACUUAAAAGAUAUAUGGAGUUAGUAGUGCAACCUGCUCGGUCUGAUGAGUCCGUAGAGGGACGAAACAGC [GUAGAG]
a: 1.47

q: Now the variant GCUGUCACCGAGAAACUGUGAAGUAUAUCUUAAACCUGGGCACUUAAAAGAUAUAUGGAGUUAGUAGUGCAACCUGCUCGGUCUGAUGAGUCCAGUUGAGGACGAAACAGC [AGUUGA]
a: 1.57

q: Another variant to check: GCUGUCACCGAGAAACUGUGAAGUAUAUCUUAAACCUGGGCACUUAAAAGAUAUAUGGAGUUAGUAGUGCAACCUGCUCGGUCUGAUGAGUCCCCACGGGGACGAAACAGC [CCACGG]
a: 1.79

q: Also check GCUGUCACCGAGAAACUGUGAAGUAUAUCUUAAACCUGGGCACUUAAAAGAUAUAUGGAGUUAGUAGUGCAACCUGCUCGGUCUGAUGAGUCCCACUGAGGACGAAACAGC [CACUGA]
a: 1.65

q: Please answer likewise for GCUGUCACCGAGAAACUGUGAAGUAUAUCUUAAACCUGGGCACUUAAAAGAUAUAUGGAGUUAGUAGUGCAACCUGCUCGGUCUGAUGAGUCCAAUAUUGGACGAAACAGC [AAUAUU]
a: 1.67

q: Continue with GCUGUCACCGAGAAACUGUGAAGUAUAUCUUAAACCUGGGCACUUAAAAGAUAUAUGGAGUUAGUAGUGCAACCUGCUCGGUCUGAUGAGUCCAACCGUGGACGAAACAGC [AACCGU]
a: 1.54
